- TARGET_DESC: PDZ protein (GST-PDZ fusion) (Homo sapiens)
- Construct: made in house; host or cells: E. coli (DH5alpha, BL21 or JM109)
- Sequence (O75970 whole entry, the tested form may be a part): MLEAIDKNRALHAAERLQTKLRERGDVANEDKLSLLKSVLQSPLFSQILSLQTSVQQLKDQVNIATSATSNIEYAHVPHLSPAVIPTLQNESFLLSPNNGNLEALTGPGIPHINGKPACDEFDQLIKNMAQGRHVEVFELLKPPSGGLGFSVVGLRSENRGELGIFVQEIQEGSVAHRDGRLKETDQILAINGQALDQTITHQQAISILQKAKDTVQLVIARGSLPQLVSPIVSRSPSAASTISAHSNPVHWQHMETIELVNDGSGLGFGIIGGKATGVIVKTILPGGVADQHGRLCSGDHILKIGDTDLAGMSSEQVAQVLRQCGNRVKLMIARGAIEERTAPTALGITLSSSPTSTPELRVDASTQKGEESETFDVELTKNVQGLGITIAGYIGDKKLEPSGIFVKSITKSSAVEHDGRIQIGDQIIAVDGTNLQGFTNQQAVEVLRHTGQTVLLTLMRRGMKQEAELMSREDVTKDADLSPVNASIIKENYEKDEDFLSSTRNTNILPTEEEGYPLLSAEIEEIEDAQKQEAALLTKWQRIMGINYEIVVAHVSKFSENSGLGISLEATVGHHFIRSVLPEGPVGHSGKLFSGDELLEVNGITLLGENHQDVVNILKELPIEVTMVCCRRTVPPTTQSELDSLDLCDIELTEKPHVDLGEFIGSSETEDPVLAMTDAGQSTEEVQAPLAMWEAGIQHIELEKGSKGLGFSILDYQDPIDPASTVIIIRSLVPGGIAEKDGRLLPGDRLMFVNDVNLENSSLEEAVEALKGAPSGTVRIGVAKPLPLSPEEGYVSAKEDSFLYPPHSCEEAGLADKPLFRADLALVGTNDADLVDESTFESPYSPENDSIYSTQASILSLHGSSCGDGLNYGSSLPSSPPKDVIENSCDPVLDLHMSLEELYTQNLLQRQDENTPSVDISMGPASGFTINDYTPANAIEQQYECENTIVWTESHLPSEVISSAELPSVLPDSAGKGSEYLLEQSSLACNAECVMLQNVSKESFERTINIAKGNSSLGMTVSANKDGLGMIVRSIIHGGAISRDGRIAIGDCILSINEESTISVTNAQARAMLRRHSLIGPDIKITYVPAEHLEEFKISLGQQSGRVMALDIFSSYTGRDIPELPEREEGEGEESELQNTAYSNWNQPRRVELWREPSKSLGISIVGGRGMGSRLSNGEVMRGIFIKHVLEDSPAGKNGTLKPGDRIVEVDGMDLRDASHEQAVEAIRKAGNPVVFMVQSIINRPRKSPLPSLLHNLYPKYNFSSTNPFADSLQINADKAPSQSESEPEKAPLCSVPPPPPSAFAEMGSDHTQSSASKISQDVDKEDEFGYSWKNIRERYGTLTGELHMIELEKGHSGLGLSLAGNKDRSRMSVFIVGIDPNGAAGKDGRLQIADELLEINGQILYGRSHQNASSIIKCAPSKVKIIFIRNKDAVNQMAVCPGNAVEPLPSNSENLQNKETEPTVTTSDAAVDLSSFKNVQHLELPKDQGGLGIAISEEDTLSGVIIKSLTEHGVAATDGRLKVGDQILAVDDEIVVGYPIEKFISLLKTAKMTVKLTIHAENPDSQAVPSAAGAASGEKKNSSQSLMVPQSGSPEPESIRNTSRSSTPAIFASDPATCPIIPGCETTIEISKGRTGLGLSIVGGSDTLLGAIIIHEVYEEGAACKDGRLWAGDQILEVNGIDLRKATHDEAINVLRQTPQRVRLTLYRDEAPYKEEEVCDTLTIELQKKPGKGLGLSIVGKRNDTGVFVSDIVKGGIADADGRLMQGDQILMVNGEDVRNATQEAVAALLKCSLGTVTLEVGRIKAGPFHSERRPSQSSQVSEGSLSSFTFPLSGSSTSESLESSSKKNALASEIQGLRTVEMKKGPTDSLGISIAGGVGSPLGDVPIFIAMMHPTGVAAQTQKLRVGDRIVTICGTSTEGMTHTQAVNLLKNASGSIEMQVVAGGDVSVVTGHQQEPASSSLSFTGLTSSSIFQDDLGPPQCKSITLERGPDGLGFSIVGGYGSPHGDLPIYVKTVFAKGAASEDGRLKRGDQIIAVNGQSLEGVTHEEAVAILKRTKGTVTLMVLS
- TEST_DESCRIPTION: G' assay (10 uM PL peptide), results of TABLE 7 and TABLE 12
- Format: binding
- MEASUREMENT_PARAMETERS: PDZ MUPP-1, PDZ Domain 11
Ends that are not written are not given here. * marks the point of attachment. Biotin = O=C1N[C@H]2[C@H](CS[C@H]2CCCCC(=O)*)N1
READOUT_LABEL: Classification

{"SEQUENCE_RECORD": "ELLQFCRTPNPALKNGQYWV (Biotin-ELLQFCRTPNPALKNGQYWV)", "Classification": "5 (A450 nm of 4 more than 2× repeated)"}
{"SEQUENCE_RECORD": "GPVPGEPAKPKTSAHHATFV (Biotin-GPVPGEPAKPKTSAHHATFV)", "Classification": "1 (A450 nm 0-1)"}
{"SEQUENCE_RECORD": "RIAYSLLGLKDQVNTVGIPI (Biotin-RIAYSLLGLKDQVNTVGIPI) [ephrin A2]", "Classification": "1 (A450 nm 0-1)"}
{"SEQUENCE_RECORD": "KTMPAAMFRLLTGQETPLYI (Biotin-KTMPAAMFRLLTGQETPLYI) [MINT-2]", "Classification": "5 (A450 nm of 4 more than 2× repeated)"}

Could you share which Classification value was measured for KTMPAATYRLLTGQEQPVYL (Biotin-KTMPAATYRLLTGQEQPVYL) [MINT-3] ?
2 (A450 nm 1-2)
